target: M4 muscarinic receptor (Homo sapiens, UniProt P08173); construct: expressed in transfected cells; host or cells: CHO (M4-CHO); test: Functional mobilization of intracellular calcium (FLIPR) in M4-CHO cells; type: cell-based; conditions: M4 receptor, calcium mobilization; read-out: M4 Efficacy
Sequence (P08173 whole entry): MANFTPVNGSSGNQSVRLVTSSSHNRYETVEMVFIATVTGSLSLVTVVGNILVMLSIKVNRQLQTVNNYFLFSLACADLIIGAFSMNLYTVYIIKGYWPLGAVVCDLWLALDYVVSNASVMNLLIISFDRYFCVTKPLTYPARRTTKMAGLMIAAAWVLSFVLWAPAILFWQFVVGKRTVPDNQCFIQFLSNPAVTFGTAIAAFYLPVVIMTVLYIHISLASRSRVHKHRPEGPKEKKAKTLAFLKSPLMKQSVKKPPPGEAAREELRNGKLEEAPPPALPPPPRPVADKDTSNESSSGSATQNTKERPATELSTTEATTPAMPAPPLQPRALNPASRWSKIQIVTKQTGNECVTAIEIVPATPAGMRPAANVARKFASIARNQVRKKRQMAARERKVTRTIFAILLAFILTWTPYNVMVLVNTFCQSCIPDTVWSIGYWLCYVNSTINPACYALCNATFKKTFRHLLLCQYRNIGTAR
Measured Emax accompanies every entry in the list below.

Sample answers from the record:
INSERT INTO results (molecule, target_under_test, quantity, reported_result) VALUES
  ('Clc1ccc2c(c1)C1(CCN(C3CCOCC3)CC1)CN2 [compound 37]', 'M4 muscarinic receptor (Homo sapiens, UniProt P08173)', 'Emax', '> 85%'),
  ('O=C(OCC(F)(F)F)N1C2CCC1CC(N1CCC3(CC1)COc1ccc(F)cc13)C2 (centres unmarked) [compound 124]', 'M4 muscarinic receptor (Homo sapiens, UniProt P08173)', 'Emax', '< 65%');

Hi! What's the reported Emax for CCOC(=O)N1CCC(N2CCC3(CC2)CN(C(=O)N(CC)CC)c2ccc(F)cc23)CC1 [compound 223] on M4 muscarinic receptor (Homo sapiens, UniProt P08173)?
< 65%

Hi! What's the reported Emax for COCCOC(=O)N1C2CCC1CC(N1CCC3(CC1)CN(C(=O)C1CC1)c1ccc(F)cc13)C2 (centres unmarked) [compound 311] on M4 muscarinic receptor (Homo sapiens, UniProt P08173)?
65 to 85%

Hi! What's the reported Emax for CCNC(=O)N1C2CCC1CC(N1CCC3(CC1)COc1ccc(F)cc13)C2 (centres unmarked) [compound 219] on M4 muscarinic receptor (Homo sapiens, UniProt P08173)?
< 65%

Hi! What's the reported Emax for Clc1ccc2c(c1)C1(CCO2)CCN(C2CCOCC2)CC1 [compound 178] on M4 muscarinic receptor (Homo sapiens, UniProt P08173)?
65 to 85%

Hi! What's the reported Emax for CCOC(=O)N1CCC(C)(CN2CCC3(CC2)C[C@H](NC(C)=O)c2ccccc23)CC1 [compound 315] on M4 muscarinic receptor (Homo sapiens, UniProt P08173)?
< 65%

Hi! What's the reported Emax for CCOC(=O)N1CCC(N2CCC3(CC2)CN(C(C)=O)c2ccc(F)cc23)C1 (centres unmarked) [compound 113] on M4 muscarinic receptor (Homo sapiens, UniProt P08173)?
< 65%

* * *

biological target: M1 muscarinic receptor (Homo sapiens, UniProt P11229); construct: expressed in transfected cells; host or cells: CHO (M1-CHO); test: Functional mobilization of intracellular calcium (FLIPR) in M1-CHO cells; format: cell-based; conditions: M1 receptor, calcium mobilization; read-out: M1 Efficacy
Sequence (P11229 whole entry): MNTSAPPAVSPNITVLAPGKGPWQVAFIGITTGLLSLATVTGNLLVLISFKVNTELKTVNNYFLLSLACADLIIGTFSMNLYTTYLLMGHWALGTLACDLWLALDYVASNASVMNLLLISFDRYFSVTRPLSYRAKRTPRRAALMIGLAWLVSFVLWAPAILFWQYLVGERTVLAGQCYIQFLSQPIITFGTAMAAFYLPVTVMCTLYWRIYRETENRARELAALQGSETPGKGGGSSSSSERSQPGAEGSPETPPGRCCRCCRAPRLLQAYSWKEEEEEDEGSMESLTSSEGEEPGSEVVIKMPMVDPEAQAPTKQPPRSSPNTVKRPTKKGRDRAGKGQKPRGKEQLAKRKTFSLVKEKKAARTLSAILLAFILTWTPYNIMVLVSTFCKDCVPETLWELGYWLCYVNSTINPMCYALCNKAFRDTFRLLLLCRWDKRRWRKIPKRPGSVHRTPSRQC
Measured Emax accompanies every entry in the list below.

INSERT INTO assay_data (compound, target_under_test, reported_result) VALUES
  ('CCOC(=O)N1CCC(N2CCC3(CC2)CN(C(=O)OCC(C)C)c2ccc(F)cc23)CC1 [compound 30]', 'M1 muscarinic receptor (Homo sapiens, UniProt P11229)', '> 85%'),
  ('CCOC(=O)N1CCC(N2CCC3(CC2)CN(C(=O)C2CC2)c2ccc(F)cc23)CC1 [compound 136]', 'M1 muscarinic receptor (Homo sapiens, UniProt P11229)', '> 85%'),
  ('CC(=O)N1CC2(CCN(CC3CC4CCC3CC4)CC2)c2cc(F)ccc21 (centres unmarked) [compound 366]', 'M1 muscarinic receptor (Homo sapiens, UniProt P11229)', '< 65%'),
  ('CCOC(=O)N1CCC(N2CCC3(CC2)CN(C(C)=O)c2ccc(-c4cccc(C)c4)cc23)CC1 [compound 6]', 'M1 muscarinic receptor (Homo sapiens, UniProt P11229)', '65 to 85%'),
  ('CCCNC(=O)N1C2CCC1CC(N1CCC3(CC1)COc1ccc(F)cc13)C2 (centres unmarked) [compound 231]', 'M1 muscarinic receptor (Homo sapiens, UniProt P11229)', '65 to 85%');

Hi! What's the reported Emax for CCOC(=O)N1CCC(CN2CCC3(CC2)CN(C(C)=O)c2ccc(OC)cc23)CC1 [compound 237] on M1 muscarinic receptor (Homo sapiens, UniProt P11229)?
< 65%

Hi! What's the reported Emax for CCON=C1CCC(N2CCC3(CC2)CN(C(C)=O)c2ccc(F)cc23)CC1 (centres unmarked) [compound 86] on M1 muscarinic receptor (Homo sapiens, UniProt P11229)?
65 to 85%

Hi! What's the reported Emax for COC(=O)N1CCC(CN2CCC3(CC2)C[C@H](NC(C)=O)c2ccccc23)CC1 [compound 182] on M1 muscarinic receptor (Homo sapiens, UniProt P11229)?
65 to 85%
